# TGT: Heat shock factor protein 1 (Homo sapiens) (UniProt Q00613)
# Sequence (Q00613 whole entry, looked up): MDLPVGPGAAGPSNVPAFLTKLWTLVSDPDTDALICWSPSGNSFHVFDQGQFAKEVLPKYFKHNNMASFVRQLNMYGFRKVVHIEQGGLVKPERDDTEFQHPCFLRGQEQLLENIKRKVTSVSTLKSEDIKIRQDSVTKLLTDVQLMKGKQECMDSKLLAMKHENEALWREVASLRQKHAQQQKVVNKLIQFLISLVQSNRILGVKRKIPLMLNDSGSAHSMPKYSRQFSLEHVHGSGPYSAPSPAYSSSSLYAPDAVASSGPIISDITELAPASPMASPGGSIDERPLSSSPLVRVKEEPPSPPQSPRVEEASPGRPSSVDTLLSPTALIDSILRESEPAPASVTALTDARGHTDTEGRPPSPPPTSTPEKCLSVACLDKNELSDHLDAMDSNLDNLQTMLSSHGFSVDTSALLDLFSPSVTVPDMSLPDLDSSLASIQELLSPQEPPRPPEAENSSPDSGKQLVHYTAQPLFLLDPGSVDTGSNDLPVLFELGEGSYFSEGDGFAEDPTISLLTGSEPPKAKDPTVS
# TEST NAME: ATG_HSE_CIS: Attagene CIS-FACTORIAL HepG2 Assay for human Heat Shock Transcription Factor 1 (HSE) (AID 2282953)
# CONDITION DESCRIPTION: HepG2 HSE cis-reporter, Attagene RNA transcription; actives raise or lower the signal
Active and inactive are the calls of the source. Rule for the calls: active = hit-call score of the fitted dose curve at least 0.9, where 1 is the maximum; inactive = score below 0.9.
Classes used: yes (1) for active, no (0) for inactive

COMPOUND	CATEGORY
Nc1ccccc1	no (0)
CC1(C)CC(=O)CC(C)(C)N1[O]	no (0)
COc1cc(OC)c(OC)cc1C=O	no (0)
Clc1ccc(-c2ccccc2)cc1	no (0)
O=S(=O)(O)O	no (0)
CCc1cccc(C)c1N(C(=O)CCl)[C@@H](C)COC	no (0)
CCCCCCCCCCCC#N	no (0)
Nc1ccc(Cl)c(Cl)c1	no (0)
Cc1ccc(N(SC(F)(Cl)Cl)S(=O)(=O)N(C)C)cc1	yes (1)
CC(O)CN(CC(C)O)CC(C)O (configuration not stated)	no (0)
BrCBr	no (0)
c1ccc(P(c2ccccc2)c2ccccc2)cc1	no (0)
N#Cc1cc(I)c(O)c(I)c1	no (0)
[Cl-].[Cl-].[Cl-].[Yb+3]	no (0)
[CH3][Sn]([CH3])([Cl])[Cl]	yes (1)
CC(C)CCCCCCCOC(=O)c1ccccc1C(=O)OCCCCCCCC(C)C	no (0)
CCC(C)c1cc([N+](=O)[O-])cc([N+](=O)[O-])c1OC(=O)C=C(C)C (configuration not stated)	yes (1)
N#CCNCC#N	no (0)
CCCCOC(=O)CCC(=O)OCCCC	no (0)
O=[N+]([O-])O	no (0)
CCCCCc1cc(O)cc(O)c1	no (0)
C=C(Cl)Cl	no (0)
CC(C)(Cl)Cl	no (0)
O=C1Nc2ccc(Cl)cc2C(c2ccccc2)=NC1O (configuration not stated)	no (0)
O=C=Nc1ccccc1	no (0)
CCC[N+](=O)[O-]	no (0)
Nc1ccc([N+](=O)[O-])cc1N	no (0)
ClC1=C(Cl)[C@]2(Cl)[C@@H]3[C@@H](Cl)[C@H](Cl)C[C@@H]3[C@@]1(Cl)C2(Cl)Cl	no (0)
CCCC=NO	no (0)
O=P1(NCCCl)OCCCN1CCCl (configuration not stated)	no (0)
O=[N+]([O-])c1ccc(Cl)cc1	no (0)
CCOP(=O)(OCC)Oc1ccc([N+](=O)[O-])cc1	no (0)
